These data points were gathered from paper PMC10397247.

# Subject of test: T1, 4H3777-AA
# T1 chain: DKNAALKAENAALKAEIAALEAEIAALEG
# Assay info: two-hybrid library CCmax;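 further: natural log of median RNA to DNA barcode read ratio; higher means stronger binding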
# Condition parameters: mean of both orientations
// reported interaction score per item
Readout name: interaction score

Binder | Recorded result
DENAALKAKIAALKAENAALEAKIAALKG [4H1878-AA] | -1.54
DENAALKAEIAALEAKNAALKAEIAALEG [4H1593-AA] | -1.54
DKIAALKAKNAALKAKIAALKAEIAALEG [4H3049-AA] | -0.0348
DEIAALEAKIAALKAENAALEAKIAALEG [4H341-AA] | -1.17
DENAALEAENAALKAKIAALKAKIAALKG [4H1262-AA] | 2.49
DKNAALKAEIAALEAKIAALKAKIAALEG [4H3629-AA] | -0.576
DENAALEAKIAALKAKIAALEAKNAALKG [4H1384-AA] | 0.578
DEIAALEAKIAALKAEIAALEAENAALKG [4H324-AA] | -1.37
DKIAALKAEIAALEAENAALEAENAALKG [4H2580-AA] | -1.49
DKIAALKAKNAALEAENAALEAEIAALEG [4H2961-AA] | -1.97
DKIAALKAEIAALEAKIAALKAENAALKG [4H2604-AA] | -1.38
DKNAALEAKIAALKAKNAALKAEIAALEG [4H3449-AA] | -2.46
DKIAALKAENAALKAEIAALEAKNAALKG [4H2760-AA] | -0.779
DEIAALEAENAALKAKIAALKAENAALEG [4H235-AA] | 0.00925
